Just for reference, patent US6887879B2 is where these values come from.

# TARGET OR SYSTEM: wt HIV-1 RT (Human immunodeficiency virus type 1 group M subtype B, UniProt P04585)
# Construct: Wild type (wt) version of recombinant HIV-1 RT were expressed with a histidine tag; histidine tag; made in house; host or cells: E. coli
# PROTOCOL TEXT: RT inhibition assay, RNA dependent DNA polymerase activity
# Type: biochemical
# TEST PARAMETERS: template/primer HIV-PBS/dPR; substrate dNTPs, each 5 μM
PARAMETER: IC50 (nM)
Give the quantity in nM, number only.

I would be grateful if you could share the reported IC50 for Nc1nc2c(ncn2[C@H]2CC[C@@H](COP(=O)(O)OP(=O)(O)OP(=O)(O)O)O2)c(=O)[nH]1 [ddGTP, dideoxyguanosine triphosphate, reference compound] .
74

Field request: IC50 | item: Nc1nc2c(ncn2C2COC(COP(=O)(O)OP(=O)(O)OP(=O)(O)O)O2)c(=O)[nH]1 (centres unmarked) [DXG-TP, DXG 5′-triphosphate]
62
